Task for the reader: assign each of the following compounds its reported 72 hr Cumulative Permeation.
assay: Human cadaver skin permeation study in modified Franz diffusion cells; conditions: drug-in-adhesive formulation, human cadaver stratum corneum, Franz cells, 32° C., 72 hr
Give just the number in µg/cm²; leave the unit off.

According to the records, this compound CC(C)OC(=O)C(C)c1cccc(C(=O)c2ccccc2)c1 (stereo not drawn) [Ketoprofen Isopropyl Ester] displays 72 hr Cumulative Permeation of 61.2

Short answer for CCOC(=O)C(C)c1cccc(C(=O)c2ccccc2)c1 (stereo not drawn) [Ketoprofen Ethyl Ester] : 72 hr Cumulative Permeation was 170

The recorded 72 hr Cumulative Permeation for CC(C(=O)OCC(O)CO)c1cccc(C(=O)c2ccccc2)c1 (stereo not drawn) [Ketoprofen Monoglycerol Ester] is 214

Ref: patent US7989496B2
